Reported log10 IC50 values follow for various compounds
- Tgt: 12-LOX (Homo sapiens, UniProt P18054)
- Method Description: 12-LOX fluorescent assay (in vitro lipoxygenase inhibition)
- Format: biochemical
- Assay Conditions: 100 nM recombinant 12-LOX, 20 μM AA, DHR123 fluorescence; several values in a cell = repeat determinations; read-out: IC50 (μM) values for in vitro lipoxygenase inhibition, 12-LOX
Hey, these are logged values: log10 of IC50, µM being the unit before logging.

Known log10 IC50 results, listed for orientation:
1) c1ccc(CNc2ccc(NCCn3cncn3)c(-c3ccccc3)c2)cc1 [SS20308-0145-01]	-1.70
2) Cc1cc(Nc2ccc(Cl)c(F)c2)ccc1NCC1(Cn2ccnc2)COC1 [SS20308-0328-01]	-1.52
3) Fc1ccc(Nc2ccc3c(c2)N(CCn2cncn2)CC3)cc1 [SS20308-0201-01]	-1.30

For FC1(F)CCC(CNc2ccc(NCCn3cncn3)cn2)CC1 [SS20308-0247-01] , what is its reported log10 IC50?
-0.89

// log10 IC50 lookup, key: c1ccc(Nc2cnc(-c3ccccc3)c(NCCn3cncn3)c2)cc1 [SS20308-0173-01]
0.04

====

- Tgt: UniProt P18054
- Sequence (P18054 1-663): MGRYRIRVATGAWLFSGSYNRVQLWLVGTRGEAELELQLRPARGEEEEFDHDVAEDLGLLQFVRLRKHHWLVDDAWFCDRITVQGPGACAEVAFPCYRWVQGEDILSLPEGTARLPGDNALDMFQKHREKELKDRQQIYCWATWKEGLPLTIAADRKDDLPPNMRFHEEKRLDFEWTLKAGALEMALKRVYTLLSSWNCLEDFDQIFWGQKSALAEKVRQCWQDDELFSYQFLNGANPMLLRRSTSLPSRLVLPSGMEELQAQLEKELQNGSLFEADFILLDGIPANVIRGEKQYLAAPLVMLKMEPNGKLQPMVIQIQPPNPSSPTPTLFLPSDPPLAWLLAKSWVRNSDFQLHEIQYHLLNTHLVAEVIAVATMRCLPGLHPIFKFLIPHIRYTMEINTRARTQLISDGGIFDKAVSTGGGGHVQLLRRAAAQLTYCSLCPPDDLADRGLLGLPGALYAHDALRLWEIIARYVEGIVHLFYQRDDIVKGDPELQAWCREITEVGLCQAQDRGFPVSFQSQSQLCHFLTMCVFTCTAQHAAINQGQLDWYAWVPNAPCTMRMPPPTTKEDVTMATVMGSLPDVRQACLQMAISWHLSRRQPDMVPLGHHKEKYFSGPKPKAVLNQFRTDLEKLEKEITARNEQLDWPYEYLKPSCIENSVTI
- Method Description: 12-LOX fluorescent assay (in vitro lipoxygenase inhibition)
- Type: biochemical
- Assay Conditions: 100 nM recombinant 12-LOX, 20 μM AA, DHR123 fluorescence; several values in a cell = repeat determinations; read-out: IC50 (μM) values for in vitro lipoxygenase inhibition, 12-LOX
Recorded IC50 split into classes bottom bin = under 0.1 µM, middle bin = from 0.1 µM up to 3 µM, top bin = 3 µM and over

Form: Item = `COc1ccc(CNc2ccc3c(-c4ccccc4)cc(=O)[nH]c3c2OCCN(C)C)cc1` ; Class = ?
top bin

Hey, which category is `CN(C)CCOc1c(Nc2ccccc2)ccc2c(-c3ccccc3)cc(=O)[nH]c12` in, do you know?
top bin

Band assignment needed for `Fc1ccc(CNc2ccc(NCCn3cncn3)cn2)cc1` please.
bottom bin

Which bin should I file FC(F)(F)C(Nc1ccc(NCCCN2CCOCC2)c(C2CCCCC2)c1)c1ccccc1 (stereo not drawn) under?
bottom bin

Data provenance is patent US20230117592A1.
